Target: T1, recombinant human GREM1 (hGREM1-His; C-terminal 10His tagged, R&D, #5190-GR) (human, UniProt O60565 25-184)
T1 construct: range 25-184; also called recombinant human GREM1 with a C-terminal decahistidine tag
T1 sequence: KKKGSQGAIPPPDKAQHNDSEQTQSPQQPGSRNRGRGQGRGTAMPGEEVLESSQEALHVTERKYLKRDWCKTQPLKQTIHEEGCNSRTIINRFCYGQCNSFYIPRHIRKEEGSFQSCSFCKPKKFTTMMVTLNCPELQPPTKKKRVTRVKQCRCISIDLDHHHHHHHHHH
Assay: BLI Octet, mAb captured, 100 nM GREM1;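 note: octet Red96 biolayer interferometry at 25 °C in pH 7.4 HEPES saline buffer, antibodies held on anti-human IgG Fc capture biosensors, then exposed to GREM1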
endpoint: Binding Signal with 30 sec Association (nm)
Please respond with the number in nm and leave the unit unwritten.

H4H2926N (antibody, human IgG4, V domains shown, H4H prefix = human IgG4 Fc) VH: EVQLVESGGGLVQTGRSLRLSCAASGFTFDDYAMNWVRQAPGKGLEWVSGISWNSGNIGYADSVKGRFTISRDNAKNSLYLQMNSLRAEDTALYYCVKYIGQQLVQDYFDYWGQGTLVTVSS VL: DIQMTQSPSSLSASVGDRVTITCQASQDITNYLNWYQQRPGKAPKLLIYDAFNLERGVPSRFSGSGYGTYFTFTISSLQPEDIAIYYCQQYDNLPLTFGGGTKVEIE ... 0.23
H4H6245P (antibody, human IgG4, V domains shown, H4H prefix = human IgG4 Fc) VH: EVQLVESGGGLVQPGGSLRLSCAASGFTFNSFWMSWVRQAPGKGLEWVANIKQDGSEKYYVDSVKGRFTISRDNAKNSVYLQMNSLRAEDTAVYYCARDLVTSFDYWGQGTLVTVSS VL: DIQMTQSPSSLSASVGDRVTITCQASQDINNYLNWYQQKPGKAPKLLIYDASYLETGVPSGFSGSGSGTDFTFTISSLQPEDIATYYCQQYDSLPYTFGQGTKLEIK ... 0.23

Turning to the following binder.
Determine its reported Binding Signal with 30 sec Association: H4H2889N (antibody, human IgG4, V domains shown, H4H prefix = human IgG4 Fc) VH: QVQLQESGPGLVKPSETLSLTCTVSGGSISNSYWSWIRQPPGKGLEWIGYIYYSGNTNYNPSLKSRVTISVDTSKNQFSLKLSSVTAADTAVYYCARVNDYSNYDSYYYGMDVWGQGTTVTVSS VL: AIQMTQSPSSLSASVGDRVTITCRASQGIRNDLGWYQQKPGKAPKLLIYAASSLQSGVPSRFSGSGSGTDFTLTISSLQPEDFATYYCLQDYNYPPTFGQGTKVDIK
0.2
